Target: D(2) dopamine receptor (Homo sapiens) (UniProt P14416)
Sequence (P14416 whole entry, looked up): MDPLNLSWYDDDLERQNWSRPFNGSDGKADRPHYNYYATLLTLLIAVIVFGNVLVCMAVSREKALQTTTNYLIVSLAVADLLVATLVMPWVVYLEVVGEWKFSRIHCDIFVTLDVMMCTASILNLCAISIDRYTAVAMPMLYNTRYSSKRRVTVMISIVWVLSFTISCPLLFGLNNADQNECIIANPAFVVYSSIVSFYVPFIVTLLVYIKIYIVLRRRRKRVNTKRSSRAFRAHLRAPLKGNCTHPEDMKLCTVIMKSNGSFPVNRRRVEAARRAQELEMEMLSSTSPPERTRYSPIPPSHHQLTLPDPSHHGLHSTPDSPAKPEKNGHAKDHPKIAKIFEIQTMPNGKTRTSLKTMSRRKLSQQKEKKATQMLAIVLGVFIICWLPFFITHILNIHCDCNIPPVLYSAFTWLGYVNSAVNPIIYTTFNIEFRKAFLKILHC
Assay: Dopamine D2 receptor (DRD2) small molecule antagonists, cell-based qHTS assay (AID 1963595); also: % is scaled to controls: 0 for no effect and ±100 for the full control effect
Conditions: HEK293-DRD2 cAMP HTRF antagonist mode; series mostly up to 92.4 µM
Results filed as inconclusive are left out. Active and inactive are the calls of the source. Calls follow the shape of the dose curve; as a rule, active = well fitted inhibition curve with a large enough effect in the signal ratio in the repeat runs, with a control signal flat; inconclusive = weak or mixed curves, or effect the other way; inactive = flat fitted curve, though single readings scatter; the % refers to the signal ratio.
reported_metric: outcome

CCOC(=O)CCN(SN(C)C(=O)Oc1cccc2c1OC(C)(C)C2)C(C)C    inactive
CC(C)C(Br)C(=O)NC(N)=O (centres undefined)    inactive
CC(C)(N)Cc1ccc(Cl)cc1    inactive
CC(=O)c1cc2c(cc1C)C(C)(C)C(C)CC2(C)C (centres undefined)    inactive
CC(C)(C)C(O)C(Oc1ccc(Cl)cc1)n1cncn1 (centres undefined)    inactive
O=C(O)[C@H](O)[C@@H](O)C(=O)O    inactive
c1ccc2c(c1)Sc1ccccc1N2CC1CN2CCC1CC2 (centres undefined)    inactive
O=C(O)C(F)(F)C(F)(F)C(F)(F)C(F)(F)C(F)(F)F    inactive

Consider the following items and state reported outcome for each.
1. CCN(CC)c1c([N+](=O)[O-])cc(C(F)(F)F)c(N)c1[N+](=O)[O-]
2. CCOP(=S)(OCC)SCSP(=S)(OCC)OCC
3. ClSC(Cl)(Cl)Cl
4. CC(C)=CC1C(C(=O)OC(C#N)c2cccc(Oc3ccccc3)c2)C1(C)C (centres undefined)
5. CC[N+]1(C)CCCC(OC(=O)C(O)(c2ccccc2)c2ccccc2)C1 (centres undefined)
6. CSC1=N[C@@](C)(c2ccccc2)C(=O)N1Nc1ccccc1

1. inactive
2. inactive
3. inactive
4. inactive
5. inactive
6. inactive

* * *

Target: D(2) dopamine receptor (Homo sapiens) (UniProt P14416)
Assay: Dopamine D2 receptor (DRD2) small molecule agonists, cell-based qHTS assay (AID 1963594); also: % is scaled to controls: 0 for no effect and ±100 for the full control effect; nearly all actives have a fitted effect of over 35% in size
Settings: HEK293-DRD2 cAMP HTRF, agonist mode, 30 min; series mostly up to 92.4 µM
Results filed as inconclusive are left out. Activity calls are given as the source filed them. The call rests on the fitted dose curve.
Bench note: report the call from yes (1) for active, no (0) for inactive

CCCCN(N=O)C(=N)N[N+](=O)[O-]    no (0)
O=C(CBr)OCc1ccccc1    no (0)
C[N+](C)(C)CCCl    no (0)
CN=CNc1ccc(C)cc1C    no (0)

Which outcome was entered for the compound COC(=O)N(C(=O)N1CO[C@@]2(C(=O)OC)Cc3cc(Cl)ccc3C2=N1)c1ccc(OC(F)(F)F)cc1 in this test? no (0)

Which outcome was entered for the compound Cn1cc(C2=C(c3cn(C4CCN(Cc5ccccn5)CC4)c4ccccc34)C(=O)NC2=O)c2ccccc21 in this test? no (0)

* * *

Molecular target: Beta-2 adrenergic receptor (Homo sapiens) (UniProt P07550)
Sequence (P07550 whole entry, looked up): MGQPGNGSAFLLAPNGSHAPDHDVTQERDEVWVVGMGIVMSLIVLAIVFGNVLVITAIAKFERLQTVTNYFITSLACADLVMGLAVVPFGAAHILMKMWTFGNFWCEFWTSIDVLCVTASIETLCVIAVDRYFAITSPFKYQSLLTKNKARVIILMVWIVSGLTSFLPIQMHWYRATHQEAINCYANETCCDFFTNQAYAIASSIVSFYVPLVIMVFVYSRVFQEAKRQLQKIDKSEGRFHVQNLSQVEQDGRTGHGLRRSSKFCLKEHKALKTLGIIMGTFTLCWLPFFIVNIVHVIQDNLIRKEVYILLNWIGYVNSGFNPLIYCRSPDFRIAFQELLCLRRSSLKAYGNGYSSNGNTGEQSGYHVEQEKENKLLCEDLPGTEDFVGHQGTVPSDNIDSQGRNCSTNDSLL
Experiment: Adrenergic beta2 receptor (ADRB2) small molecule antagonists, cell-based qHTS assay (AID 1963592); also: nearly all actives have a fitted effect of over 50% in size
Details: CHO-ADRB2 cells, isoproterenol-stimulated cAMP HTRF ratio, 0.5 h; series mostly up to 92.4 µM
Results filed as inconclusive are left out. Activity calls are given as the source filed them. The call rests on the fitted dose curve.
Bench note: report the call from 1.0 for active, 0.0 for inactive

Look over these answered cases.
CCCCN(CCCC)C(=S)[S-].CCCCN(CCCC)C(=S)[S-].[Zn+2]    0.0
Nc1n[nH]c(N)n1    0.0
C[As+](C)(C)CC(=O)[O-]    0.0
O=[N+]([O-])c1ccccc1CCl    0.0
O=C(O)C(Br)(Br)Br    0.0

Which outcome was entered for the compound C=CC(=O)OCCCCO in this test? 0.0

Which outcome was entered for the compound CC(C)[C@H](C(=O)O[C@H](C#N)c1cccc(Oc2ccccc2)c1)c1ccc(Cl)cc1 in this test? 0.0

Which outcome was entered for the compound O=C(CCCN1CCC2(CC1)C(=O)NCN2c1ccccc1)c1ccc(F)cc1 in this test? 1.0

Which outcome was entered for the compound CCc1cc2c(s1)-n1c(C)nnc1CN=C2c1ccccc1Cl in this test? 0.0
